B1: Lysozyme C, P61626 (parent)
chain: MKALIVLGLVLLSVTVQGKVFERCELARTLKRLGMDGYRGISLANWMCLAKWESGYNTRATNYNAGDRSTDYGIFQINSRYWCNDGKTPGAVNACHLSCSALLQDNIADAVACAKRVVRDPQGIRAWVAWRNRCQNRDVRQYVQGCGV

Variants of: B1
setup.conditions: Homo sapiens; pH 2.72; Thermal; DSC; glycine 0.05 M; reversible: yes; structure 1LZ1; whole UniProt chain shown
parameter.measured: unfolding enthalpy (van 't Hoff)
Output should be the measured figure followed by the unit it is expressed in.

Guide cases for unfolding enthalpy (van 't Hoff), answers given:
V118A = 73.4 kcal/mol
V139A = 56.9 kcal/mol
V117A = 65.8 kcal/mol

From here, focus on the item given below.
Could you tell me which unfolding enthalpy (van 't Hoff) is on file for "V143A" ?
70.6 kcal/mol

Origin of the recorded values: FireProtDB (doi:10.1006/jmbi.1998.1906)
